method.notes: Ex vivo biodistribution in mice with MM1S tumor xenografts
measurement.context: both sexes, NSG, mouse, adrenals, 80 µCi, 60 min p.i.; MM1S xenograft mice; read-out: uptake in adrenals
endpoint: tissue uptake at 1 h (%ID/g)
Numbers only here, please. The scale is %ID/g.

Q: # lookup: tissue uptake at 1 h of CC[C@H](C)[C@@H]1NC(=O)[C@@H]2CCCN2C(=O)[C@H](Cc2ccccc2)NC(=O)[C@H](CC(=O)O)NC(=O)[C@H](C)NC(=O)[C@@H]2CSCc3cc(cc(c3)CSC[C@H](NC(=O)[C@H](C)NC(=O)CCOCCOCCOCCNC(=O)CN3CCN(CC(=O)O)CCN(CC(=O)O)CC3)C(=O)N[C@@H](C(C)C)C(=O)N3CCC[C@H]3C(=O)N2)CSC[C@@H](C(N)=O)NC(=O)[C@H](Cc2ccc(O)cc2)NC(=O)[C@H](Cc2c[nH]c3ccccc23)NC1=O [[^68Ga]Ga‐AJ206, metal not drawn]
A: 0.59

---

method.notes: Ex vivo biodistribution in mice with MM1S tumor xenografts
measurement.context: both sexes, NSG, mouse, brain, 80 µCi, 5 min p.i.; MM1S xenograft mice; read-out: uptake in brain
endpoint: tissue uptake at 5 min (%ID/g)
Numbers only here, please. The scale is %ID/g.

Q: # lookup: tissue uptake at 5 min of CC[C@H](C)[C@@H]1NC(=O)[C@@H]2CCCN2C(=O)[C@H](Cc2ccccc2)NC(=O)[C@H](CC(=O)O)NC(=O)[C@H](C)NC(=O)[C@@H]2CSCc3cc(cc(c3)CSC[C@H](NC(=O)[C@H](C)NC(=O)CCOCCOCCOCCNC(=O)CN3CCN(CC(=O)O)CCN(CC(=O)O)CC3)C(=O)N[C@@H](C(C)C)C(=O)N3CCC[C@H]3C(=O)N2)CSC[C@@H](C(N)=O)NC(=O)[C@H](Cc2ccc(O)cc2)NC(=O)[C@H](Cc2c[nH]c3ccccc23)NC1=O [[^68Ga]Ga‐AJ206, metal not drawn]
A: 0.44

---

method.notes: Ex vivo biodistribution in mice with MM1S tumor xenografts
measurement.context: both sexes, NSG, mouse, tumor, 2 mg/kg, 60 min p.i.; MM1S xenograft mice with blocking dose (2 mg kg^−1 AJ206); read-out: uptake in tumor
endpoint: tissue uptake at 1 h (%ID/g)
Numbers only here, please. The scale is %ID/g.

Q: # lookup: tissue uptake at 1 h of CC[C@H](C)[C@@H]1NC(=O)[C@@H]2CCCN2C(=O)[C@H](Cc2ccccc2)NC(=O)[C@H](CC(=O)O)NC(=O)[C@H](C)NC(=O)[C@@H]2CSCc3cc(cc(c3)CSC[C@H](NC(=O)[C@H](C)NC(=O)CCOCCOCCOCCNC(=O)CN3CCN(CC(=O)O)CCN(CC(=O)O)CC3)C(=O)N[C@@H](C(C)C)C(=O)N3CCC[C@H]3C(=O)N2)CSC[C@@H](C(N)=O)NC(=O)[C@H](Cc2ccc(O)cc2)NC(=O)[C@H](Cc2c[nH]c3ccccc23)NC1=O [[^68Ga]Ga‐AJ206, metal not drawn]
A: 1.37

---

method.notes: Ex vivo biodistribution in mice with MM1S tumor xenografts
measurement.context: both sexes, NSG, mouse, thymus, 80 µCi, total radioactivity, 60 min p.i.; MM1S xenograft mice; read-out: uptake in thymus
endpoint: tissue uptake at 1 h (%ID/g)
Numbers only here, please. The scale is %ID/g.

Q: # lookup: tissue uptake at 1 h of CC[C@H](C)[C@@H]1NC(=O)[C@@H]2CCCN2C(=O)[C@H](Cc2ccccc2)NC(=O)[C@H](CC(=O)O)NC(=O)[C@H](C)NC(=O)[C@@H]2CSCc3cc(cc(c3)CSC[C@H](NC(=O)[C@H](C)NC(=O)CCOCCOCCOCCNC(=O)CN3CCN(CC(=O)O)CCN(CC(=O)O)CC3)C(=O)N[C@@H](C(C)C)C(=O)N3CCC[C@H]3C(=O)N2)CSC[C@@H](C(N)=O)NC(=O)[C@H](Cc2ccc(O)cc2)NC(=O)[C@H](Cc2c[nH]c3ccccc23)NC1=O [[^68Ga]Ga‐AJ206, metal not drawn]
A: 0.69

// provenance: paper PMC11040352
